Data origin: the OPERA property sets (Mansouri et al. 2018)

Where a SMILES comes first, the peptide text is derived from it.
Label 1 when logP is at or above 3; anything below gets -1.

[ask] Check if logP >= 3 (inclusive). Item: "O=C1C2=C(CCCC2)C(=O)N1c1ccc(Cl)cc1"
[reply] 1

[ask] Given "CCCCCCCC(=O)[O-].[Na+]" , state whether its logP is at least 3.
[reply] -1

[ask] In plain terms: is recorded logP at least 3 for CC(=O)N[C@@H](C)C(=O)N[C@H](C(N)=O)C(C)C (Ac-Ala-Val-NH2) ?
[reply] -1

[ask] Could you please find out whether "c1ccc2nc3c4ccccc4c4ccccc4c3cc2c1" has logP that meets 3 or exceeds it?
[reply] 1

[ask] Reported logP at or above 3? "CCCN(CC1CC1)c1c([N+](=O)[O-])cc(C(F)(F)F)cc1[N+](=O)[O-]"
[reply] 1

[ask] Kindly determine if logP recorded for "N=C(N)NN=Cc1cccc([N+](=O)[O-])c1" is above or exactly 3.
[reply] -1

[ask] Could you tell me if the measured logP of "Cc1ccc(C)c(NCc2cnc3nc(N)nc(N)c3c2C)c1" reaches 3 or more?
[reply] -1

[ask] Please indicate if the recorded logP for "Clc1ccc2c(Cl)c(Cl)c(Cl)c(Cl)c2c1" meets or exceeds 3.
[reply] 1

[ask] Threshold query (logP >= 3) on "CC(C)OC(C)C"
[reply] -1

[ask] Reported logP reaches at least 3 for "COc1c2ccoc2cc2oc(=O)ccc12" ?
[reply] -1

[ask] Hi, just wondering whether "Oc1cccc(-c2ccccc2O)c1" shows logP of 3 or higher.
[reply] 1

[ask] Is logP for "COc1cc(CC(=O)O)ccc1O" at or above 3?
[reply] -1

[ask] hey, is logP for this one >= 3? CC(C)=CC1C(C(=O)OCc2coc(Cc3ccccc3)c2)C1(C)C (centres undefined)
[reply] 1

[ask] Could you tell me if the measured logP of "Nc1ncnc2c1ncn2Cc1ccccc1" reaches 3 or more?
[reply] -1

[ask] Determine whether this compound has logP no lower than 3: CC1CCCCC1O (centres undefined)
[reply] -1

[ask] # check: logP of Cc1ccc(S(=O)(=O)NC(CCC(=O)NC2CCCCC2)C(=O)O)cc1 (centres undefined) is greater than or equal to 3
[reply] -1

[ask] Please check the record "O=C(O)Cc1ccccc1I" and state if its logP is at or above 3.
[reply] -1

[ask] Does logP meet or surpass 3 for "Cc1ccc(C=[N+]([O-])c2ccccc2)cc1" ?
[reply] -1

[ask] Is the recorded value of logP equal to or greater than 3 for this compound? "CC(C)CCCCCCCOP(=O)(Oc1ccccc1)Oc1ccccc1"
[reply] 1

[ask] Is logP at least 3? Consider "CC(C)/N=c1/cc2n(-c3ccc(Cl)cc3)c3ccccc3nc-2cc1Nc1ccc(Cl)cc1"
[reply] 1

[ask] Hi team, for "C=CC(=O)NCCCN1CCOCC1" , is the recorded logP at or above 3?
[reply] -1

[ask] In plain terms: is recorded logP at least 3 for "CCOC(=O)n1c(-c2cscn2)nc2ccccc21" ?
[reply] -1

[ask] Determine whether this compound has logP no lower than 3: CCN1CCC(CNC(=O)c2cc(S(N)(=O)=O)c(N)cc2OC)C1 (centres undefined)
[reply] -1

[ask] Determine whether measured logP meets or exceeds 3 for "CCN(CC)CCNC(=O)c1ccc(N)c(Cl)c1"
[reply] -1

[ask] For this compound, is measured logP 3 or higher? CCCN1CCCC1CNC(=O)c1cc(S(N)(=O)=O)ccc1OC (centres undefined)
[reply] -1

[ask] State whether the measured logP reaches 3, counting equality as reaching it, for CCC(Oc1ccc(Cl)cc1C)C(=O)O (centres undefined)
[reply] 1

[ask] Check this compound for logP at or above 3: "O=P(O)(O)CN(CCCCCCN(CP(=O)(O)O)CP(=O)(O)O)CP(=O)(O)O"
[reply] -1

[ask] Check the entry "Clc1cc(Cl)c(Oc2ccccc2)cc1Cl" : does logP equal or exceed 3?
[reply] 1

[ask] Hi team, for Cc1cc(OCCNCC2CC(=O)c3ccccc3C2=O)c(C(C)C)cc1O (centres undefined) , is the recorded logP at or above 3?
[reply] 1

[ask] Could you please find out whether "Clc1cc(Cl)c2cc(Cl)ccc2c1" has logP that meets 3 or exceeds it?
[reply] 1

[ask] hey, is logP for this one >= 3? "CC(C)CC(=O)OCc1ccccc1"
[reply] 1

[ask] Record "CCOC(=O)CNC(=O)c1cn(CC)c2nc(C)ccc2c1=O" ; criterion: logP no lower than 3. Met?
[reply] -1

[ask] Hi team, for CCCCOC(=O)C(N)Cc1ccc(O)cc1 (centres undefined) , is the recorded logP at or above 3?
[reply] -1

[ask] Would you say "CSc1nc2ccccc2s1" shows logP at minimum 3?
[reply] 1

[ask] Please check the record "Nc1cccc2c(N)cccc12" and state if its logP is at or above 3.
[reply] -1

[ask] Does the reported logP for "Nc1nc(=O)n([C@H]2CC[C@@H](CO)O2)cc1Br" fall at or above the 3 mark?
[reply] -1

[ask] Does "N=C(N)NN=Cc1ccccc1[N+](=O)[O-]" have a reported logP of at least 3?
[reply] -1

[ask] Is logP at least 3? Consider "COc1ccc(N=C=S)cc1"
[reply] 1

[ask] Exam item: decide whether the reported logP for CC(C)C(C#N)c1ccc(Cl)cc1 (centres undefined) is at least 3.
[reply] 1

[ask] // inclusive: logP at least 3? input: "Cn1cnc([N+](=O)[O-])c1I"
[reply] -1

[ask] # check: logP of "O=C(O)c1nc(Cl)ccc1Cl" is greater than or equal to 3
[reply] -1

[ask] Is the recorded value of logP equal to or greater than 3 for this compound? "Cc1ccccc1OCCN(C)C"
[reply] -1

[ask] Please tell me: is the compound ClCC1(CCl)C2C(Cl)C(Cl)(Cl)C1(C(Cl)Cl)CC2(Cl)Cl (centres undefined) at or over 3 in terms of logP?
[reply] 1

[ask] Decide: logP of "CCN(C)N=O" >= 3?
[reply] -1

[ask] Hi team, for "CCOP(=O)(OCC)SCc1ccccc1" , is the recorded logP at or above 3?
[reply] 1

[ask] Is logP for "CCCCC[C@H](O)/C=C/[C@@H]1[C@@H](C/C=C\CCCC(=O)O)[C@@H](O)C[C@H]1O" at or above 3?
[reply] 1

[ask] Hi, just wondering whether ClCC1(C(Cl)Cl)C2CC(Cl)(Cl)C1(C(Cl)Cl)C(Cl)C2Cl (centres undefined) shows logP of 3 or higher.
[reply] 1

[ask] Does the reported logP for "Cc1nc(NCCCO)c(C#N)cc1-c1ccccc1" fall at or above the 3 mark?
[reply] -1

[ask] Does the reported logP for "COc1c(Cl)ccc(Cl)c1Cl" fall at or above the 3 mark?
[reply] 1
